system: RPMI-8226 leukemia; assay: NCI tumour cell line growth inhibition, 48 h
We begin with a simple list: items and their reported TGI.

The examples below pair each entry with its known result.
Challenge: What value of TGI has been recorded for this entry: `O=c1oc2c3ccc4ccccc4c3n(CCN3CCCCC3)c2c2ccccc12`
Response given: > 100 µM

Challenge: // returns reported TGI for input CSC1=Nc2c(c(C)c(-c3ccccc3)n2COC(CO)CO)C2=NC(=O)CC(C)N12 (centres undefined)
Response given: > 100 µM

Challenge: Endpoint output: TGI of COc1ccc(C2Cc3cc(OC)c(OC)c(OC)c3C2)cc1 (centres undefined) . Value?
Response given: 98.9 µM

New cases:
Challenge: State the recorded TGI for this entry: `Cc1ccc(C(=O)Oc2ccccc2)cc1N=NN(C)C`
Response given: > 100 µM

Challenge: Please look up its TGI: `CCCCCCCCCCCCOCC1(COCCCCCCCCCCCC)COC(c2ccc(N)cc2)OC1`
Response given: > 100 µM

Challenge: GET /values?readout=TGI&item= COc1cccc(/C=N\NC(=O)C(C)SC(C)C(=O)N/N=C/c2cccc(OC)c2)c1 (centres undefined)
Response given: > 82.3 µM

Challenge: I would be grateful if you could share the reported TGI for `CC[C@H]1OC(=O)[C@H](C)[C@@H](O[C@H]2C[C@@](C)(OC)[C@@H](O)[C@H](C)O2)[C@H](C)[C@@H](O[C@@H]2O[C@H](C)C[C@H](N(C)C)[C@H]2O)[C@](C)(OC)C/C(C)=C2/O[C@@]1(C)C=C2C` .
Response given: 5.14 µM

Challenge: Requested read-out: TGI. Entry: `O=C(O)CSc1n[nH]c(-c2ccco2)n1`
Response given: > 100 µM

Challenge: Which TGI value is on record for `C=C1C2=C(CCCC2)C(=O)OC12CCCCC2` ?
Response given: > 100 µM

###

system: SR leukemia; test: NCI tumour cell line growth inhibition, 48 h
RESULT_TYPE: TGI

Challenge: I have this compound here, CC(C)[Si]1(C(C)C)OCC2OC(n3ccc(=O)[nH]c3=O)C([Se]c3ccccc3)C2O[Si](C(C)C)(C(C)C)O1 (stereo unspecified) , and I need its recorded TGI.
Response given: 27.1 µM

###

The compounds listed here are annotated with their TGI.
test system: M14 melanoma; experiment: NCI tumour cell line growth inhibition, 48 h

Challenge: Given the entry `Cc1cc(-c2nc3c(F)cccc3s2)ccc1N` , report its measured TGI.
Response given: > 100 µM

Challenge: May I ask what TGI has been recorded for `O=CNc1ccccc1OCCOc1ccccc1NC=O` ?
Response given: > 100 µM

Challenge: Any idea what its TGI is? The compound is `COc1ccc(/C=C\c2cc(OC)c(OC)c(OC)c2)cc1`
Response given: > 100 µM

Challenge: Given the compound `Cc1ccc(S(=O)(=O)N2CCSCCSCCSCCN(S(=O)(=O)c3ccc(C)cc3)CC2)cc1` , what is its reported TGI?
Response given: > 100 µM

Challenge: Which measured TGI value corresponds to CC(=O)Nc1cccc(N2C(=O)/C(=C\c3cccc(Oc4ccccc4)c3)SC2c2ccccc2)c1 (stereo unspecified) ?
Response given: > 100 µM

***
Challenge: Which measured TGI value corresponds to `Cc1ccc(C(=O)Oc2ccccc2)cc1N=NN(C)C` ?
Response given: > 100 µM

Challenge: # TGI lookup, item COc1cc2cc(C(=O)N3CC(CCl)c4ccc([N+](C)(C)Cc5ccccc5[N+](=O)[O-])cc43)[nH]c2c(OC)c1OC (stereo unspecified)
Response given: 19 µM

Challenge: Item CC(Cn1c2c(c3cc(O)ccc31)CCc1ccc(O)cc1-2)N(C)C (stereo unspecified) has what recorded TGI?
Response given: 28.8 µM

Challenge: # input compound: `C[C@@H]1CCc2ncc(F)cc2[C@H]2CCCN2c2ccn3ncc(c3n2)C(=O)N1` ; wanted: its TGI
Response given: > 100 µM

Challenge: Please look up its TGI: COC(=O)/C=C/[C@@H]1[C@H](C)N1S(=O)(=O)c1ccc(C)cc1 (stereo partly specified)
Response given: > 100 µM

Challenge: For `Cc1nc2ccccc2c(=O)n1/N=C(\N=Nc1cc(Cl)ccc1Cl)c1ccccc1` , what is its reported TGI?
Response given: > 100 µM

Challenge: What does the data say about its TGI? Entry: COc1cc(C2S/C(=C/c3ccccc3)C(=O)N2c2cccc(NC(C)=O)c2)cc(OC)c1OC (stereo unspecified)
Response given: > 100 µM
